B1: glmS ribozyme (parent)
chain: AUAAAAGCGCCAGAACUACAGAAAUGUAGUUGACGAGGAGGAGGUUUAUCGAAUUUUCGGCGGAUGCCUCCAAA

variants of: B1; assay: self-cleavage kobs at 40 uM GlcN6P; higher = faster cleavage; RNA array; details: with glucosamine-6-phosphate
Variants at the floor of the assay were thinned out.

{"Mutation Notation": "A33U A42U C61U", "Unit": "s⁻¹", "Censoring Qualifier": "<", "self-cleavage kobs at 40 uM GlcN6P": "1e-05"}
{"Mutation Notation": "C10U U30C G59A G60A C70U", "Unit": "s⁻¹", "Censoring Qualifier": "<", "self-cleavage kobs at 40 uM GlcN6P": "1e-05"}
{"Mutation Notation": "A15C U47G", "Unit": "s⁻¹", "Censoring Qualifier": "=", "self-cleavage kobs at 40 uM GlcN6P": "3.18e-05"}
{"Mutation Notation": "G13C G29U A48U", "Unit": "s⁻¹", "Censoring Qualifier": "<", "self-cleavage kobs at 40 uM GlcN6P": "1e-05"}
{"Mutation Notation": "A12C U55C", "Unit": "s⁻¹", "Censoring Qualifier": "=", "self-cleavage kobs at 40 uM GlcN6P": 0.000147}
{"Mutation Notation": "C11U C50G C58A", "Unit": "s⁻¹", "Censoring Qualifier": "=", "self-cleavage kobs at 40 uM GlcN6P": 0.000112}
